System: K562 CRISPRi cells
measurement protocol: Constant region variant library pooled growth screen, K562
Format: cell-based, human
study conditions: sgRNA constant region variants; activity relative to the original, un-modified constant region cr995
The following molecules are shown together with reported Mean relative activity values.

molecule	Mean relative activity
cr049 (nucleic acid, listed as DNA, chemistry not fully specified) guide: GTGTTAGAGCTAAGCTGGAAACAGCATAGCAAGTTTAAATAAGGCTAGTCCGTTATCAACTTGAAAAAGTGGCACCGAGTCGGTGCT	0.003203
cr590 (nucleic acid, listed as DNA, chemistry not fully specified) guide: GTTTAAGAGCTAAGCTGGAAACAGCATAGCAAGTTTAAATAAGGCTAGTCCGTTATCAACTTGACAAAGTGGCACCGAGCCGGTGCT	0.8361
cr627 (nucleic acid, listed as DNA, chemistry not fully specified) guide: GTTTAAGAGCTAAGCTGGAAACAGCATAGCAAGTTTAAATAATGCTAGTCAGTTATCAACTTGAGAAAGTGGCACCGAGTCGGTGCT	0.02763
cr215 (nucleic acid, listed as DNA, chemistry not fully specified) guide: GTTTAAGAGCTAAGCTGGAAACAGCATAGCAAGTTTAAATAAGGCTAGTCCGTTATCAACTTGAAAAAGTAGCACCGAGTCGGTGCT	0.8059

Provenance of the data: patent US20220259593A1
